Here, each record is paired with measured pIC50 data.
- tgt: human LPA1 (Homo sapiens)
- Construct: expressed in transfected cells; host or cells: Chinese hamster ovary (CHO) cells
- Sequence (Q92633 whole entry): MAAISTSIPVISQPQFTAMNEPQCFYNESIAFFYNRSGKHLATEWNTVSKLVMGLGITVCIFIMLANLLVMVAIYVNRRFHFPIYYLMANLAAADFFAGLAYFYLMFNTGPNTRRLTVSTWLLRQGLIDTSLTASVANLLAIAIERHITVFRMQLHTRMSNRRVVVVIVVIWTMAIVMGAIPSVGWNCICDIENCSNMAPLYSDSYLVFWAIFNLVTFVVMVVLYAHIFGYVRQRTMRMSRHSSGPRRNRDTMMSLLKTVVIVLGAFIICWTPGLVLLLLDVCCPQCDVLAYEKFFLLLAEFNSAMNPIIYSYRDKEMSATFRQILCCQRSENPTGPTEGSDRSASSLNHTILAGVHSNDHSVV
- protocol: LPA1 functional antagonist assay (LPA-induced calcium flux)
- Assay type: cell-based
- run.conditions: read-out: hLPA1 IC50
Keep in mind that pIC50 stands for -log10 of concentration in molar terms.

>>> numeric_readout("CN(CCC1CC1)C(=O)OCc1c(-c2ccc(O[C@H]3CCC[C@H](C(=O)O)C3)cc2)nnn1C (racemic)")
7.39
>>> numeric_readout("Cc1nc(-c2nnn(C)c2COC(=O)N(C)CC2CCOC2)ccc1O[C@H]1CCC[C@H](C(=O)O)C1 (some centres unmarked)")
6.46
>>> numeric_readout("Cc1cc(-c2nnn(C)c2COC(=O)N(C)CC2CCC2)ccc1O[C@H]1CCC[C@H](C(=O)O)C1")
7.85
>>> numeric_readout("Cc1nc(-c2nnn(C)c2COC(=O)N(C)Cc2ccccc2)ccc1O[C@H]1CCC[C@H](C(=O)O)C1")
7.80
>>> numeric_readout("Cc1nc(-c2nnn(C)c2COC(=O)N(C)C2CCCC2)ccc1O[C@H]1CCC[C@](F)(C(=O)O)C1 (racemic)")
7.49

Please provide the recorded pIC50 for `C[C@H](C1CC1)N(C)C(=O)OCc1c(-c2ccc(O[C@H]3CCC[C@H](C(=O)O)C3)c(F)c2)nnn1C` , tested on human LPA1 (Homo sapiens).
8.00

Lab note: need pIC50 for `CCCC(C)(C)N(C)C(=O)OCc1c(-c2ccc(O[C@H]3CCC[C@H](C(=O)O)C3)c(C)n2)nnn1C` on human LPA1 (Homo sapiens), anyone have it?
7.16

Give human LPA1 (Homo sapiens) pIC50 for `CN(Cc1ccccc1)C(=O)OCc1c(-c2ccc(O[C@H]3CCC[C@H](C(=O)O)C3)c(F)c2)nnn1C`
7.47
